Field: self-splicing fitness (ln). Provide a value for each of the sequences that follow.
Assay: self-splicing fitness, log relative to wild type (ln ratio); higher = more splicing; Tetrahymena group I intron in knt gene, E. coli kanamycin selection, DiMSum; sequences stand for … in CUCUCU…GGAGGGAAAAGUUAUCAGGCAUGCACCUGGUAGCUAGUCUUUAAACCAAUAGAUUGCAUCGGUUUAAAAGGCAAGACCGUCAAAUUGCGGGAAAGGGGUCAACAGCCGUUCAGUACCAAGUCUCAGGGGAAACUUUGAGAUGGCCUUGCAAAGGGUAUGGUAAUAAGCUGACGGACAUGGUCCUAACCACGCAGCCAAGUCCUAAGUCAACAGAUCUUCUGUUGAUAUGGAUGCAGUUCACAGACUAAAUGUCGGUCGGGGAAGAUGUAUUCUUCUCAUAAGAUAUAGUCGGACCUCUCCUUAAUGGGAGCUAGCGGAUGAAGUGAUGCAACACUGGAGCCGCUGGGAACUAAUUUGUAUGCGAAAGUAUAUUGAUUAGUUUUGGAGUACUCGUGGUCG;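 note: selection with 25 µg/mL kanamycin versus none on LB agar overnight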
Settings: 30 °C

input sequence: GUUAAGCAAUAUUACGGUGC
self-splicing fitness (ln): -2.42

Give self-splicing fitness (ln) for all sequences that follow.
1. AAUUAGCAAUAUUACGCCGC
2. GAGAAGCAAUAUUACGCCCG
3. UCGCAGCAAUAUUACGCUCG
4. GAGAAGCAAUAUUACGGGUC
5. ACUUAGCAAUAUUACGAUUA
6. CAAUAGCAAUAUUACGUACU
7. AUUCAGCAAUAUUACGUGCU
8. AUUCAGCAAUAUUACGACGA

[-2.94, -2.15, -3.23, -3.08, -1.05, -3.33, -2.95, -0.537]

Each of the following entries comes with a recorded value; kindly state self-splicing fitness (ln) for each.
1. AUGUAGCAAUAUUACGAAUA
2. UUCAAGCAAUAUUACGGUCG
3. UAGGAGCAAUAUUACGGCGC

-2.75
-0.917
-1.76

###

Experiment: self-splicing fitness, log relative to wild type (ln ratio); higher = more splicing; Tetrahymena group I intron in knt gene, E. coli kanamycin selection, DiMSum; sequences stand for … in CUCUCU…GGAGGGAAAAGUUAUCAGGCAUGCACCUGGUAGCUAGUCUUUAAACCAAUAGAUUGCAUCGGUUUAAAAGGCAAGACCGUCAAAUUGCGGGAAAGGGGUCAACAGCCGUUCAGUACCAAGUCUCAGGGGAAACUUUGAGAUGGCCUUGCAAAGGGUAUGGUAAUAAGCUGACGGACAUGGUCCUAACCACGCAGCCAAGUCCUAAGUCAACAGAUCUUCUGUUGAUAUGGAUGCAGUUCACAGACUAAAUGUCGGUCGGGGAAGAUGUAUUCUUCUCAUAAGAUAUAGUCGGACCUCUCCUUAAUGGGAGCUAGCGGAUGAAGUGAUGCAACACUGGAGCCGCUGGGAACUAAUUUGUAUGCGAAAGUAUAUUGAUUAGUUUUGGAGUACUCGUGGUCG
Conditions: 37 °C
Class Condition met: self-splicing fitness (ln) at least -2. Class Condition not met: self-splicing fitness (ln) below -2.

Use these answered entries as a reference point.
input sequence: GUAAAGCAAUAUUACGAUUC
class assignment: Condition met
//
input sequence: GGGUAGCAAUAUUACGCACA
class assignment: Condition met
//
input sequence: UGGGAGCAAUAUUACGUAUU
class assignment: Condition met
//
input sequence: UUCAAGCAAUAUUACGAGAU
class assignment: Condition not met
//
input sequence: GAACAGCAAUAUUACGUAGU
class assignment: Condition met
//
input sequence: UCAGAGCAAUAUUACGUGGU
class assignment: Condition met
//
input sequence: UAAGAGCAAUAUUACGGAAU
class assignment: Condition not met
//
input sequence: GUGGAGCAAUAUUACGGUAU
class assignment: Condition met
//
input sequence: GCGCAGCAAUAUUACGCCUC
class assignment: Condition met
//
input sequence: ACGUAGCAAUAUUACGAAUC
class assignment: Condition not met

Is reported self-splicing fitness (ln) greater than or equal to -2 here: CGCUAGCAAUAUUACGGUAA
Condition not met

Please check the record AGACAGCAAUAUUACGUUUC and state if its self-splicing fitness (ln) is at or above -2.
Condition not met

// inclusive: self-splicing fitness (ln) at least -2? input: CCUCAGCAAUAUUACGACAC
Condition not met

Item AAAGAGCAAUAUUACGGCGU with self-splicing fitness (ln) of -2 or above?
Condition met

Tell me whether self-splicing fitness (ln) is at least -2 here: UGACAGCAAUAUUACGUUUG
Condition met

###

Assay: self-splicing fitness, log relative to wild type (ln ratio); higher = more splicing; Tetrahymena group I intron in knt gene, E. coli kanamycin selection, DiMSum; sequences stand for … in CUCUCU…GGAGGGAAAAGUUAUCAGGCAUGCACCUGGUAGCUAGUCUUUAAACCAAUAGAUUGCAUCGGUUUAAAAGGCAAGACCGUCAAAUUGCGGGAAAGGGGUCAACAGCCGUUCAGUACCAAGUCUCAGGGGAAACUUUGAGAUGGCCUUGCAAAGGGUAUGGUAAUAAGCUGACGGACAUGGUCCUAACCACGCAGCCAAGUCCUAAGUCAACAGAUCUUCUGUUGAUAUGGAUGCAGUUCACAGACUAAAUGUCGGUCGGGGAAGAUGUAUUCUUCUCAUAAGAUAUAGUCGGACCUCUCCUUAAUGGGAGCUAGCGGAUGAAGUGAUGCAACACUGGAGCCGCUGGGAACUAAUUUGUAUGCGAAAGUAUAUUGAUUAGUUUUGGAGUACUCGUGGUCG
Conditions: 37 °C
Categorize each record by its self-splicing fitness (ln) using I = under -2, II = from -2 up to -1, III = -1 and over

As a guide, the following entries are already answered.
input sequence: ACUUAGCAAUAUUACGAGCA
class assignment: III
--
input sequence: GUUCAGCAAUAUUACGGGGC
class assignment: I
--
input sequence: UGUAAGCAAUAUUACGUAGU
class assignment: III
--
input sequence: CGUUAGCAAUAUUACGUUCC
class assignment: II
--
input sequence: CGGCAGCAAUAUUACGGCAG
class assignment: III
--
input sequence: CAAUAGCAAUAUUACGCCAA
class assignment: I

Attention now shifts to the item below.
GET /class?item= CAAGAGCAAUAUUACGAUUA
III

###

Assay: self-splicing fitness, log relative to wild type (ln ratio); higher = more splicing; Tetrahymena group I intron in knt gene, E. coli kanamycin selection, DiMSum; sequences stand for … in CUCUCU…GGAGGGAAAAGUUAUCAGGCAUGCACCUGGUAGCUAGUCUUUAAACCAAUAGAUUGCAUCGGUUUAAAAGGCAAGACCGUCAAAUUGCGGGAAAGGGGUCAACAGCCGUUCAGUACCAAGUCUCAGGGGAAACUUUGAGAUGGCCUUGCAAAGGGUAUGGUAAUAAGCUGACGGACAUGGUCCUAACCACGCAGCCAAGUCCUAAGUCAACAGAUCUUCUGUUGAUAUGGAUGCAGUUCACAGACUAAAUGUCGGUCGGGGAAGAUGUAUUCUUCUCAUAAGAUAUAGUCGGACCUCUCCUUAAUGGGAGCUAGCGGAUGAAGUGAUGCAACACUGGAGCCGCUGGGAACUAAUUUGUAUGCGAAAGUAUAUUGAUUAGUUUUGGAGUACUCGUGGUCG
Details: 37 °C
self-splicing fitness (ln) vs -0.6: at or above is Criterion met, below is Criterion not met.

input sequence: GACUAGCAAUAUUACGGUAG
class assignment: Criterion met

input sequence: UCGUAGCAAUAUUACGCCUU
class assignment: Criterion not met

input sequence: AUGCAGCAAUAUUACGGCGA
class assignment: Criterion met

Say whether AGAUAGCAAUAUUACGACAU shows self-splicing fitness (ln) of -0.6 or more.
Criterion met

Evaluate GUCAAGCAAUAUUACGCCCU : self-splicing fitness (ln) at minimum -0.6?
Criterion met

Decide: is the reported value of self-splicing fitness (ln) for AAGCAGCAAUAUUACGUGGA equal to or greater than -0.6?
Criterion not met

Answer whether self-splicing fitness (ln) of UCAAAGCAAUAUUACGGGAU is greater than or equal to -0.6.
Criterion not met

Check if self-splicing fitness (ln) >= -0.6 (inclusive). Item: UUCCAGCAAUAUUACGCUUU
Criterion met

Exam item: decide whether the reported self-splicing fitness (ln) for CAUCAGCAAUAUUACGUAGA is at least -0.6.
Criterion met

Could you tell me if the measured self-splicing fitness (ln) of CGUGAGCAAUAUUACGAUAG reaches -0.6 or more?
Criterion met

Dear colleague, could you confirm whether CAACAGCAAUAUUACGCUAA has self-splicing fitness (ln) at or above -0.6?
Criterion not met

Does the reported self-splicing fitness (ln) for GAAUAGCAAUAUUACGCAAC fall at or above the -0.6 mark?
Criterion not met

Exam item: decide whether the reported self-splicing fitness (ln) for GUAAAGCAAUAUUACGCGUC is at least -0.6.
Criterion not met

Is it the case that UCUCAGCAAUAUUACGGCUG has self-splicing fitness (ln) reaching or exceeding -0.6?
Criterion not met

Please check the record CCGCAGCAAUAUUACGCCUU and state if its self-splicing fitness (ln) is at or above -0.6.
Criterion not met

Answer whether self-splicing fitness (ln) of AAGAAGCAAUAUUACGCAAG is greater than or equal to -0.6.
Criterion not met

Does self-splicing fitness (ln) meet or surpass -0.6 for CACGAGCAAUAUUACGGUAG ?
Criterion not met

Reported self-splicing fitness (ln) at or above -0.6? CAAGAGCAAUAUUACGAGGG
Criterion not met

hey, is self-splicing fitness (ln) for this one >= -0.6? GGCUAGCAAUAUUACGGUGG
Criterion not met

Please check the record UGUUAGCAAUAUUACGACCA and state if its self-splicing fitness (ln) is at or above -0.6.
Criterion met

Entry source: the supplement of paper PMC7877785
